test system: anticorps anti-nef; assay: ELISA for detection of anti-nef antibodies on coated peptides or nef; format: binding, humain; settings: Serum 28, anti-nef positive; 500 ng coated per well
Where no end group is shown, it is not given here. The star is where a group is joined. Acm = CC(=O)NC*
Test readout: intensité de l'immunoréactivité (OD), Serum 28

substance="XGGKWSKSSVVGWPTVRERMRRAEPAADGVGAYCZ [PF11]" reported_result="+ (pour OD = 0,2 à 0,4)"
substance="XGGKWSKSSVVGWPTVRERMRRAEPAADGVGAASRDLEKHGAITSSNTA ATNAACAWLEAQEEEEVGZ [PF12, protéine F HIV-1, séquence 1-66]" reported_result="+ (pour OD = 0,2 à 0,4)"
substance="XCYKLVPVEPDKVEEANKGENTSLLHPVSLHGMDDPEREVLEWRFDSRL AFHHVARELHPEYFKNCZ [PF17, protéine F HIV-1, séquence 141-205]" reported_result="++ (pour OD = 0,4 à 0,8)"
substance="GMDDPEREVLEWRFDSRLAFHHVARELHPEYFKNC(acm) (GMDDPEREVLEWRFDSRLAFHHVARELHPEYFKNC(Acm)) [PF16, protéine F HIV-1, séquence 171-205]" reported_result="++ (pour OD = 0,4 à 0,8)"
